Listed here: items and their measured protein stability index.
B1: ZNF193 (parent)
chain: QKRYHCKECGKVFSQSAGLIQHQR

# Variants of: B1
# test.summary: protein stability index of a GFP-peptide fusion (GPS, HEK-293T) (PSI 1-6); higher = more stable;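 note: lentivirally expressed fusions sorted by FACS into six bins by GFP to DsRed ratio, PSI derived from sequencing read proportions per bin multiplied by bin number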
# measurement.parameters: c terminus: a fixed tail appended
readout.label: protein stability index

• Y4F = 2.72
• I20D = 3.02
• K7L = 2.95
• Q21D = 3.82
• C6A = 2.63
• S16N = 3.11
• V12T = 3.52
• S14L = 3.16
• H5C = 3.34
• Q23R = 2.85
• G10M = 2.12
• K7R = 2.66
• R24D = 3.33
• R24A = 2.83
• I20E = 2.91
• E8Y = 2.67
• K11M = 3.23
• L19R = 2.55
• C9F = 2.17
• Q15T = 4.01
• V12G = 2.77
